# Tested on: A498 renal
# protocol-text: NCI-60 one-dose screen, 48 h (100 = growth as untreated, 0 = no growth, -100 = all killed)
# test-settings: 10 µM unless noted
# Procedure: Growth inhibition of the A498 human tumor cell line is measured as a screen for anti-cancer activity. Cells are grown in 96 well plates and exposed to the test compound for 48 hours. Compounds are tested at a single concentration, which is 10^-5 M for most compounds. The reported endpoint is percent growth (GI% or GIPRCNT), where numbers from 0 - 100% represent growth inhibition, and numbers from -100% - 0 represent cell death. For example, a value of 40 represents 60% growth inhibition. […]
This is part of a sample that, as a whole, favours compounds with a hit. Of some 83,000 tested, about 20% had one in any assay.
reported-endpoint: growth (%)
Give bare numbers, in %.

Sample records with growth:
chemical_structure=O=C(/C=C/c1ccc(Cl)cc1)c1ccc(-n2cc(CN3CCN(c4cc5c(cc4F)c(=O)c(C(=O)O)cn5C4CC4)CC3)nn2)cc1 value_reported=60.5
chemical_structure=COCCn1cc(-c2nc(-c3cc4cccnc4n3C)cs2)c2cc(OC)ccc21 value_reported=46.6
chemical_structure=CC(C)n1nc(-c2ccc3oc(N)nc3c2)c2c(N)ncnc21 value_reported=-50.4
chemical_structure=Cc1cccc(C)c1NC(=O)Nc1ccccc1 value_reported=109

Assign growth to the following record: c1ccc2cc(Cn3cc[n+](Cc4ccc5ccccc5c4)c3)ccc2c1
75.9

----------
# System: MCF7 breast
# protocol-text: NCI-60 one-dose screen, 48 h
# test-settings: 10 µM unless noted
This is part of a sample that, as a whole, favours compounds with a hit. Of some 83,000 tested, about 20% had one in any assay. Active and inactive are the calls of the source. How the source made its calls: active means growth percent below 10; inactive means the rest.
Outcomes you can answer with include only these: True for active, False for inactive

Use the examples below as a reference point.
molecule=COc1cccc(C(=O)Nc2cccc(NC(=O)c3ccccn3)c2)c1 class_label=False
molecule="CC(CN)[C@@H]1CC[C@]2(CO)CC[C@]3(C)[C@H](CC[C@@H]4[C@@]5(C)CCC(NCCO)C(C)(C)[C@@H]5CC[C@]43C)[C@@H]12 (stereo not given in full)" class_label=True
molecule=CCOc1ccc(N2C(=O)CCSC2=S)cc1 class_label=False

Identify the outcome logged in this assay for the molecule shown: CCC(=C(c1ccc(OCCN(CC)CC)cc1)c1ccc(OCCN(CC)CC)cc1)c1ccc(Cl)cc1
True

Tell me the recorded outcome of this test for Cc1cc(=O)oc2cc(Oc3nc(-c4ccccc4)cn4c(-c5ccccc5)cnc34)ccc12 .
False

----------
# System: LOX IMVI melanoma
# protocol-text: NCI-60 one-dose screen, 48 h (100 = growth as untreated, 0 = no growth, -100 = all killed)
# test-settings: 10 µM unless noted
The panel holds about 83,000 compounds, 20% with a hit somewhere; the sample as a whole holds those more often. Calls of active or inactive are those of the source. Rule for the calls: active = growth percent below 10; inactive = the rest.
reported-endpoint: growth

Examples from the recorded data:
compound=Nc1nc(Nc2ccc([N+](=O)[O-])cc2O)nc(C(Cl)(Cl)Cl)n1 reported_endpoint=growth value_reported="44.8% (inactive)"
compound="CCN1C(=O)N(CC)C2C1NN=c1s/c(=C3\\C(=O)N(C)c4ccccc43)c(=O)n12 (stereo not given)" reported_endpoint=growth value_reported="47.7% (inactive)"
compound="O=C1OCC2=C1C(c1cccc(F)c1)c1cc3c(cc1N2CCO)CCC3 (stereo not given)" reported_endpoint=growth value_reported="16.2% (inactive)"
compound=Nc1ncc(-c2ccc3ncnc(N4CCc5cc(F)c(Cl)cc54)c3c2)cc1C(F)(F)F reported_endpoint=growth value_reported="12.7% (inactive)"

Please examine the following record next.
For LOX IMVI melanoma, give growth of the listed compound: Cc1ccc2c(c1)CC(O)CC1C(=O)N(CCO)CC(=O)N21 (stereo not given)
96.2% (inactive)
